Subject of test: BRG-1 (Homo sapiens, UniProt P51532)
Sequence (P51532 whole entry): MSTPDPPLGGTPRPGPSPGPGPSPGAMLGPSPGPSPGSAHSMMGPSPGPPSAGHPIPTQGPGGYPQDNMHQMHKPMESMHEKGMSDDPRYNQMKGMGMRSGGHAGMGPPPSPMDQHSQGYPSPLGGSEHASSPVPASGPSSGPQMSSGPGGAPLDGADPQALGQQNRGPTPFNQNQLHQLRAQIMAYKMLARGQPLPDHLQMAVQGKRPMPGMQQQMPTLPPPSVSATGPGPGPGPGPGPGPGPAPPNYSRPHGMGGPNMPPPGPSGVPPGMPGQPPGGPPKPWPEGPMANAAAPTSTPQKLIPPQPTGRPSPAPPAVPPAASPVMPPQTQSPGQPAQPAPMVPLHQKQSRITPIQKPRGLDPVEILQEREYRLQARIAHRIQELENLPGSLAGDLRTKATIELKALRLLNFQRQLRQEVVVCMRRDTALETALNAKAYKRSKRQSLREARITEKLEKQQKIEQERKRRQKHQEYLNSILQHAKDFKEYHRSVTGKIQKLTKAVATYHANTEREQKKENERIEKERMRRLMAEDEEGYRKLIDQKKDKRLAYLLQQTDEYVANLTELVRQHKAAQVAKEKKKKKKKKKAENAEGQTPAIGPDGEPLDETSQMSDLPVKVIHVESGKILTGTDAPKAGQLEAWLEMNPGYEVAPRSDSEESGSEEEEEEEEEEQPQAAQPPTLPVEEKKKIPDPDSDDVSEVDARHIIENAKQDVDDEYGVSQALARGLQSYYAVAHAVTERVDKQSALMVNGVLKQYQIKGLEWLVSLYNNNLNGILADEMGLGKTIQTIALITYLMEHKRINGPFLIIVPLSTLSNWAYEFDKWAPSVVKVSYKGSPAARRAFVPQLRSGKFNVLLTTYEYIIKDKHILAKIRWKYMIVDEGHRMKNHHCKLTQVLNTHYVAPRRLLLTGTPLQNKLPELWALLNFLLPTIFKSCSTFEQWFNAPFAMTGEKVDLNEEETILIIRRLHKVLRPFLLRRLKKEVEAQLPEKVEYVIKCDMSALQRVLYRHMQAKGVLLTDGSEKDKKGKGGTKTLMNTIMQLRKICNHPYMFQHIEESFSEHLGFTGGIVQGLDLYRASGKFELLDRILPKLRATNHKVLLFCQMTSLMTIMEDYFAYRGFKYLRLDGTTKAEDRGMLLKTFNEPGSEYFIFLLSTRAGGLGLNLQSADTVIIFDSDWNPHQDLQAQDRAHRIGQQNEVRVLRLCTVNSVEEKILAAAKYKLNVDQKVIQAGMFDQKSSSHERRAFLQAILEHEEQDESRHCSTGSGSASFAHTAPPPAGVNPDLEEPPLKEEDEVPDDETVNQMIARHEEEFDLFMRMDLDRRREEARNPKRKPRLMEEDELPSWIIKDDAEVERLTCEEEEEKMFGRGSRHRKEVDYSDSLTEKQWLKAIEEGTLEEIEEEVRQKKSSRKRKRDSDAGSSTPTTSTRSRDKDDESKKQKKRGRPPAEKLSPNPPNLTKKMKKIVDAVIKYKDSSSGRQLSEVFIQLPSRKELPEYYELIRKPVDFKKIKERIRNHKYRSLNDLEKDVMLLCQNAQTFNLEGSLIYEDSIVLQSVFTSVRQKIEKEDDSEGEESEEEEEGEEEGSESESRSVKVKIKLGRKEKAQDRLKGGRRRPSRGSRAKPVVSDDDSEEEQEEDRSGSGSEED
Assay remarks: ATPase catalytic activity assay (ADP-Glo), BRG-1
Cond: 1 h, read-out: BRG1 Max % Inhibition, ADP-Glo, 30 nM BRG-1, 400 μM ATP
Record form. Attribute: Emax. Fill in for each entry.
Give bare numbers, in %.

Smiles repr	Reading unit	Emax
C[C@@]1(C#N)COCc2ccc(C(=O)NCc3cc4nc(N5CCCN(C6CCC6)C5=O)ccc4cn3)cc21	%	54

# batch: return Emax for each of the 8 compounds below
1. COc1cncc(-c2nc3cc(CNC(=O)c4ccc5c(c4)[C@](C)(C#N)COC5)ncc3s2)n1
2. Cn1c(C(F)F)cc2c(-c3ccc4cnc(CNC(=O)c5ccc6c(c5)[C@](C)(C#N)COC6)cc4n3)cccc21
3. COC1CN(C(=O)c2cccc(-c3ccc4cnc(CNC(=O)c5ccc6c(c5)[C@](C)(C#N)COC6)cc4n3)c2)C1
4. C[C@@]1(C#N)COCc2ccc(C(=O)NCc3cc4cc(-c5nccc(N6CCC6)n5)ccc4cn3)cc21
5. C[C@@]1(C#N)COCc2ccc(C(=O)NCc3cc4nc(-c5cncc(C6CC6)n5)ccc4cn3)cc21
6. CN(C)c1cccc(-c2ccc3cnc(CNC(=O)c4cc(F)c5c(c4)[C@](F)(C(F)F)COC5)cc3n2)n1
7. Cn1ncc2c(-c3ccc4cnc(CNC(=O)c5ccc6c(c5)[C@](C)(C#N)COC6)cc4n3)cccc21
8. [2H]C1([2H])OC([2H])([2H])[C@@](C)(F)c2cc(C(=O)NCc3cc4nc(-c5cncc(C6CC6)n5)ccc4cn3)cnc21

[57, 94, 72, 98, 93, 85, 95, 83]

# batch: return Emax for each of the 3 compounds below
1. COc1cncc(-c2ccc3cnc(CNC(=O)c4ccc5c(c4)[C@](C)(C#N)COC5)cc3n2)c1
2. C[C@@]1(C#N)COCc2ccc(C(=O)NCc3nccc(N4CCc5ccccc5C4)c3F)cc21
3. CNC(=O)c1cc(-c2ccc3cnc(CNC(=O)c4ccc5c(c4)[C@](C)(C#N)COC5)cc3n2)ccc1F

55
76
86

====

Subject of test: BRG-1 (Homo sapiens, UniProt P51532)
Assay remarks: ATPase catalytic activity assay (ADP-Glo), BRG-1
Cond: 1 h, read-out: BRG1 Max % Inhibition, ADP-Glo, 30 nM BRG-1, 400 μM ATP
Entries whose Emax is below 60% take Met; entries at or above 60% take Not met.

Consider the following illustrative entries.
Compound	Group label
CN(C)C(=O)c1cccc(C#Cc2ccnc(CNC(=O)c3ccc4c(c3)[C@](C)(C#N)COC4)c2)c1 [Compound 84]	Met
C[C@@]1(C#N)COCc2ccc(C(=O)NCc3cc(N4CC5(CCN(c6ccccc6)C5)C4)ccn3)cc21 [Compound 12]	Met
Cc1cnc(CNC(=O)c2ccc3c(c2)[C@](C)(C#N)COC3)cc1C#Cc1ccccc1 [Compound 15]	Not met
C[C@@]1(F)COCc2ccc(C(=O)NCc3cc4nc(-c5cncc(N6CCC6)n5)ccc4nn3)cc21 [Compound 276]	Not met
COc1nn(C)cc1-c1ccc2nnc(CNC(=O)c3ccc4c(c3)[C@](C)(C#N)COC4)cc2c1 [Compound 329]	Not met

Next:
Regarding CNC(=O)c1cc(-c2ccc3cnc(CNC(=O)c4ccc5c(c4)[C@](C)(C#N)COC5)cc3n2)ccn1 [Compound 450] , kindly confirm whether its Emax is beneath 60%. Not met

====

Subject of test: BRM (Homo sapiens, UniProt P51531)
Sequence (P51531 whole entry): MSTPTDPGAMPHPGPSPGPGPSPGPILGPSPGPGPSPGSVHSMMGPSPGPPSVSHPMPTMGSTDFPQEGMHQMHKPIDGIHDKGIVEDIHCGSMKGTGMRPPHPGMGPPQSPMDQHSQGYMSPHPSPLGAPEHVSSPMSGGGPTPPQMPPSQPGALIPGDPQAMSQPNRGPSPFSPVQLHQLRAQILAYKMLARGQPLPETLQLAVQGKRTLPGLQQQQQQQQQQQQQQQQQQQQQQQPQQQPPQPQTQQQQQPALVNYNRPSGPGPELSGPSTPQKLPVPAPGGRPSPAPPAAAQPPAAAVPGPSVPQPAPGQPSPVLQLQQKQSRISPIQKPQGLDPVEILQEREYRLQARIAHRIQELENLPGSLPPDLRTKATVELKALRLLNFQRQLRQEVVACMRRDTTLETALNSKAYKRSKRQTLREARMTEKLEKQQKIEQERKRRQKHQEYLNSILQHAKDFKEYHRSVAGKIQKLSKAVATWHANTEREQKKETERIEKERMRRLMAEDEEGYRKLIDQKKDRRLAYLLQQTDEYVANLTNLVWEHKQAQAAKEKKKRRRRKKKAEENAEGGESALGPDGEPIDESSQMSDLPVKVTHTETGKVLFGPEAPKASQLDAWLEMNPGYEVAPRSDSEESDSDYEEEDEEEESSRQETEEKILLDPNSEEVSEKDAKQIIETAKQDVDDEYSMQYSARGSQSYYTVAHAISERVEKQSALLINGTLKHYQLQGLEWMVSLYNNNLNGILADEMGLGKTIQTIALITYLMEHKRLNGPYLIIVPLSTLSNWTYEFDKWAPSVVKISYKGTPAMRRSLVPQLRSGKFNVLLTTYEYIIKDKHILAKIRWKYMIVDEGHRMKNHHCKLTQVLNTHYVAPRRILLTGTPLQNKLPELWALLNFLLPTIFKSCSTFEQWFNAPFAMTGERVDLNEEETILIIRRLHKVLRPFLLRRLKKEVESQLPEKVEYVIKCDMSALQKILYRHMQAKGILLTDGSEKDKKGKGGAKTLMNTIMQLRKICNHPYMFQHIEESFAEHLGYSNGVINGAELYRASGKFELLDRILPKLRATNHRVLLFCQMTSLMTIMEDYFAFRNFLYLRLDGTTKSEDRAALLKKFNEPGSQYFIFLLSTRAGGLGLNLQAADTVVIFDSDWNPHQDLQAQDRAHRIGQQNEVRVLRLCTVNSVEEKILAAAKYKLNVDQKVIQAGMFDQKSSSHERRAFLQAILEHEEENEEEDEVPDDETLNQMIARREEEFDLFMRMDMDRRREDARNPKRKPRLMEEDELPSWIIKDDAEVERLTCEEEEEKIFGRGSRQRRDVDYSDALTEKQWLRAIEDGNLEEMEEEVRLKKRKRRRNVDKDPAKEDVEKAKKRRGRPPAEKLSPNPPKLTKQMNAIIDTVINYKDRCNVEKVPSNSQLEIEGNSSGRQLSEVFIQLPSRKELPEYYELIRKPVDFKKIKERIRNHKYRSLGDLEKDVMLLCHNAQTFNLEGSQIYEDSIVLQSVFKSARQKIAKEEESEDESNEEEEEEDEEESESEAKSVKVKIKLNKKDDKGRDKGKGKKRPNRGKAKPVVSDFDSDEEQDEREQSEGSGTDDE
Assay remarks: ATPase catalytic activity assay (ADP-Glo), BRM
Cond: 30 nM BRM, 400 μM ATP
Reported property: BRM Max % Inhibition (%)
Give bare numbers, in %.

Worked set:
Smiles repr	Subject of test	BRM Max % Inhibition, %
C[C@@]1(C#N)COCc2ccc(C(=O)NCc3cc4nc(-c5cncc(N6CC[C@H](F)C6)n5)ccc4cn3)cc21	BRM (Homo sapiens, UniProt P51531)	99
Cn1ccc2ncc(-c3ccc4cnc(CNC(=O)c5ccc6c(c5)[C@](C)(C#N)COC6)cc4n3)nc21	BRM (Homo sapiens, UniProt P51531)	102
C[C@@]1(C#N)COCc2ccc(C(=O)NCc3cc(N4CCc5ccccc5CC4)ccn3)cc21	BRM (Homo sapiens, UniProt P51531)	90

# batch: return BRM Max % Inhibition for each of the 3 compounds below
1. O=C(NCc1cc2nc(-c3ccccc3)ccc2cn1)c1ccc2c(c1)[C@@](F)(C(F)F)COC2
2. Cn1cc2c(n1)CCN(c1ccc3cnc(CNC(=O)c4ccc5c(c4)[C@](C)(C#N)COC5)cc3n1)C2
3. CN(C)c1cccn(-c2ccc3cnc(CNC(=O)c4ccc5c(c4)[C@](C)(C#N)COC5)cc3n2)c1=O

1: 97; 2: 94; 3: 92

Query the reported BRM Max % Inhibition for BRM (Homo sapiens, UniProt P51531); item: `C[C@@]1(C#N)COCc2ccc(C(=O)NCc3cc4nc(-c5cnn(C(F)F)c5)ccc4cn3)cc21` 84

====

Subject of test: UniProt P51532
Assay remarks: ATPase catalytic activity assay (ADP-Glo), BRG-1
Reported property: IC50

Worked set:
Compound	Subject of test	Reported result
C[C@@]1(C#N)COCc2ccc(C(=O)NCc3cc(N4CCC(F)(c5ccccc5)C4)ccn3)cc21 (some centres unmarked) [Compound 60]	UniProt P51532	500 to 1000 nM
C[C@@]1(F)COCc2ccc(C(=O)NCc3cc4nc(-c5ccc(=O)n(CC(F)F)n5)ccc4cn3)cc21 [Compound 318]	UniProt P51532	500 to 1000 nM
Cn1ccc2ncc(-c3ccc4cnc(CNC(=O)c5ccc6c(c5)[C@](C)(C#N)COC6)cc4n3)nc21 [Compound 346]	UniProt P51532	< 100 nM

# batch: return IC50 for each of the 6 compounds below
1. CN1CCC(c2cccc(-c3ccc4cnc(CNC(=O)c5ccc6c(c5)[C@](C)(C#N)COC6)cc4n3)n2)CC1 [Compound 131]
2. C[C@@]1(C#N)COCc2ccc(C(=O)NCc3cc4cc(-c5ccnc(C6CC6)n5)cnc4cn3)cc21 [Compound 337]
3. CN(C)c1cccc(-c2ccc3cnc(CNC(=O)c4cnc5c(c4)[C@@](F)(C(F)F)COC5)cc3n2)n1 [Compound 227]
4. C[C@@]1(C#N)COCc2ccc(C(=O)NCc3cc([C@H]4C[C@H](c5cccc(C6CC6)n5)C4)ccn3)cc21 [Compound 77]
5. C[C@@]1(C#N)COCc2ccc(C(=O)NCc3cc4nc(-c5cn(C6COC6)nc5C5CC5)ccc4cn3)cc21 [Compound 186]
6. C[C@@]1(C#N)COCc2ccc(C(=O)NCc3cc(SCc4ccccc4)ccn3)cc21 [Compound 52]

> 1000 nM
500 to 1000 nM
100 to 500 nM
500 to 1000 nM
500 to 1000 nM
> 1000 nM

====

Subject of test: BRM (Homo sapiens)
Assay remarks: ATPase catalytic activity assay (ADP-Glo), BRM
Cond: 30 nM BRM, 400 μM ATP
Record form. Attribute: BRM Max % Inhibition. Fill in for each entry.
Give bare numbers, in %.

Worked set:
Molecule	Reading unit	Reported result
C[C@@]1(C#N)COCc2ccc(C(=O)NCc3cc(C#Cc4cccc(C(F)F)c4)ccn3)cc21	%	94
COc1nn(C2CCOC2)cc1-c1ccc2cnc(CNC(=O)c3ccc4c(c3)[C@](C)(C#N)COC4)cc2n1 (stereo partly shown)	%	89
CNC(=O)c1ccc(-c2ccc3cnc(CNC(=O)c4ccc5c(c4)[C@](C)(F)COC5)cc3n2)cn1	%	83

Given the molecule `C[C@@]1(F)COCc2ccc(C(=O)NCc3cc(C#Cc4ccccc4)ccn3)cc21` , what is its reported BRM Max % Inhibition? 94

====

Subject of test: BRG-1 (Homo sapiens, UniProt P51532)
Assay remarks: ATPase catalytic activity assay (ADP-Glo), BRG-1
Record form. Attribute: IC50. Fill in for each entry.

Compound	IC50
C[C@@]1(C#N)COCc2ccc(C(=O)NCc3cc4nc(-c5cccc(C6(O)CC6)n5)ccc4cn3)cc21 [Compound 384]	< 100 nM

# batch: return IC50 for each of the 6 compounds below
1. C[C@@]1(C#N)COCc2ccc(C(=O)NCc3cc([C@H]4C[C@@H](c5cccc(C6CC6)n5)C4)ccn3)cc21 [Compound 78]
2. C[C@@]1(C#N)COCc2ccc(C(=O)NCc3cc4nc(-c5cncc(N6CC[C@H](F)C6)n5)ccc4cn3)cc21 [Compound 311]
3. COc1ccc(F)cc1-c1ccc2cnc(CNC(=O)c3ccc4c(c3)[C@](C)(C#N)COC4)cc2n1 [Compound 517]
4. CN(C)c1cccc(-c2ccc3nnc(CNC(=O)c4ccc5c(c4)[C@](C)(F)COC5)cc3n2)n1 [Compound 238]
5. C[C@@]1(C#N)COCc2ccc(C(=O)NCc3cc(N4Cc5ccccc5C4)ccn3)cc21 [Compound 31]
6. COc1cnn(C)c1-c1ccc2cnc(CNC(=O)c3ccc4c(c3)[C@](C)(C#N)COC4)cc2n1 [Compound 297]

500 to 1000 nM
100 to 500 nM
100 to 500 nM
< 100 nM
> 1000 nM
500 to 1000 nM
